# Measurement protocol: Plasma levels of 264 and its metabolites after oral gavage to monkeys
# Type: in vivo, cynomolgus monkeys
# Conditions used: cynomolgus, cynomolgus monkey, plasma, po, 30 mg/kg
Measured property: Tmax (h)
# value in h; strip the unit string

Lab note: CC(=O)CCCCc1cc2ccc(Cl)cc2n1C(=O)CC(C)CC(=O)O (stereo not shown) gave Tmax of 4

----------
# Measurement protocol: Plasma levels of 264 and its metabolites after oral gavage to monkeys
# Type: in vivo, cynomolgus monkeys
# Conditions used: cynomolgus, cynomolgus monkey, plasma, po, 75 mg/kg
Measured property: concentration at 24 h

Lab note: CC(O)CCCCc1cc2ccc(Cl)cc2n1C(=O)CC(C)CC(=O)O (stereo not shown) [ω2-hydroxy-264] gave concentration at 24 h of ~9 µM

----------
Here, each record is paired with measured IC50 data.
# Assayed system: OXE receptor (Homo sapiens)
# Sequence (Q8TDS5 whole entry): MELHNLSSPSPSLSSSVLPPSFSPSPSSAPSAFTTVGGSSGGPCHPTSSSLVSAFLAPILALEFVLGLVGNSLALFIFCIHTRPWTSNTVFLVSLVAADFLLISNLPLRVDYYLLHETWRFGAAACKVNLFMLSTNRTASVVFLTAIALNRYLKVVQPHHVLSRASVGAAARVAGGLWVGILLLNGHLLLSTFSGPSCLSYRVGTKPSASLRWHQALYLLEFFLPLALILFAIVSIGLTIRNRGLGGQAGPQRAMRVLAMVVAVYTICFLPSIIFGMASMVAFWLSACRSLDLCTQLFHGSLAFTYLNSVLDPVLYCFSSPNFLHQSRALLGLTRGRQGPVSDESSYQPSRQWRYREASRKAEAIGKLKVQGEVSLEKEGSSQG
# Measurement protocol: 5-oxo-ETE-induced calcium mobilization in human neutrophils
# value in µM; strip the unit string

{"Molecule": "CC(=O)CCCCc1cc2ccc(Cl)cc2n1C(=O)CC(C)CC(=O)O (centres unmarked)", "Assayed system": "OXE receptor (Homo sapiens)", "Unit label": "µM", "IC50": 1.4}
{"Molecule": "CC(CC(=O)O)CC(=O)n1c(CCCC(=O)O)cc2ccc(Cl)cc21 (centres unmarked)", "Assayed system": "OXE receptor (Homo sapiens)", "Unit label": "µM", "IC50": 5.7}
{"Molecule": "CC(O)CCCCc1cc2ccc(Cl)cc2n1C(=O)CC(C)CC(=O)O (centres unmarked) [ω2-hydroxy-264]", "Assayed system": "OXE receptor (Homo sapiens)", "Unit label": "µM", "IC50": 3.3}
{"Molecule": "CC(CC(=O)O)CC(=O)n1c(CCCCCCO)cc2ccc(Cl)cc21 (centres unmarked) [ω1-hydroxy-264]", "Assayed system": "OXE receptor (Homo sapiens)", "Unit label": "µM", "IC50": 0.53}

Lab note: CC(CC(=O)O)CC(=O)n1c(CCCCCC(=O)O)cc2ccc(Cl)cc21 (centres unmarked) gave IC50 of 13

----------
# Measurement protocol: Plasma levels of 264 and its metabolites after oral gavage to monkeys
# Assay type: in vivo, cynomolgus monkeys
# Conditions used: cynomolgus, cynomolgus monkey, plasma, po, 75 mg/kg
Measured property: Tmax

Lab note: CC(=O)CCCCc1cc2ccc(Cl)cc2n1C(=O)CC(C)CC(=O)O (stereo not shown) gave Tmax of 8 to 12 h

Reference source for all entries: paper PMC10625806
